Listing: T/C of selected compounds
Test system: P388 leukemia ip, CD2F1 mice, survival T/C
Experiment: NCI In Vivo Anticancer Drug Screen. Data for tumor model P388 Leukemia (intraperitoneal) in CD2F1 (CDF1) mice
Conditions: endpoint: median survival time; dose: 100.0 mg/kg/injection; schedule: Q04DX002 (ip); vehicle: Klucel (hydroxypropylcellulose) (HPC); higher = longer survival
Toxic doses and inconclusive results are not listed.

Reference set, count: 3
O=C1CN2C(=O)C1(c1ccccc1)C(=O)NC2=S (centres undefined): 105 % of control
CCCCOC(=O)C(C)OC(=O)Nc1cccc(C)c1 (centres undefined): 105 % of control
NC(=O)c1cnc2nc1NCCCCCCC2: 100 % of control

Record request: T/C value, item O=C(NC(Cc1ccccc1)C(=O)O)c1cccnc1 (centres undefined)
96 % of control

Record request: T/C value, item O=[N+]([O-])c1ccccc1N/N=C\c1c(Cl)[nH]c2ccccc12
90 % of control

---

Tested on: P388 leukemia ip, CD2F1 mice, survival T/C
Test: NCI In Vivo Anticancer Drug Screen. Data for tumor model P388 Leukemia (intraperitoneal) in CD2F1 (CDF1) mice
Details: endpoint: median survival time; dose: 50.0 mg/kg/injection; schedule: Q01DX001 (ip); vehicle: saline with Tween-80; higher = longer survival
Toxic doses and inconclusive results are not listed.
MEASURED_PROPERTY: T/C

Reference set, count: 3
Cc1ccc2[nH]cc(C3CCCN4CCCCC34)c2c1 (centres undefined): 98 % of control
COc1ccc(S(=O)(=O)N=N/C=C2\C=CC=CN2O)cc1OC: 109 % of control
CCCN(CCC)C(=O)Cn1cc([N+](=O)[O-])s/c1=N/C(=O)NCC: 99 % of control

// next item, T/C requested
What T/C appears in the records for this compound with P388 leukemia ip, CD2F1 mice, survival T/C? CC(=O)Nc1ccc(SSc2ccc(NC(C)=O)s2)s1
86 % of control

---

Tested on: P388 leukemia ip, CD2F1 mice, survival T/C
Assay: NCI In Vivo Anticancer Drug Screen. Data for tumor model P388 Leukemia (intraperitoneal) in CD2F1 (CDF1) mice
Conditions: endpoint: median survival time; dose: 200.0 mg/kg/injection; schedule: Q01DX005 (ip); vehicle: Klucel (hydroxypropylcellulose) (HPC); higher = longer survival
Toxic doses and inconclusive results are not listed.
MEASURED_PROPERTY: T/C

Record request: T/C value, item N#Cc1cn(Cc2ccccc2)c2ccccc2c1=O
103 % of control

---

Tested on: P388 leukemia ip, CD2F1 mice, survival T/C
Assay: NCI In Vivo Anticancer Drug Screen. Data for tumor model P388 Leukemia (intraperitoneal) in CD2F1 (CDF1) mice
Settings: endpoint: median survival time; dose: 6.25 mg/kg/injection; schedule: Q01DX009 (ip); vehicle: Klucel (hydroxypropylcellulose) (HPC); higher = longer survival
Inconclusive results and toxic doses are left out.
MEASURED_PROPERTY: T/C

Reference set, count: 4
COc1ccc(-c2sc(/N=C/c3ccc(N(C)CCC#N)cc3)c(C#N)c2C)cc1OC: 91 % of control
CCCCC(CCCCCC(CCCC)NCc1ccc2c(c1)OCO2)NCc1ccc2c(c1)OCO2 (stereo not given): 97 % of control
NS(=O)(=O)c1ccc(Nc2c3ccccc3nc3cc(Cl)ccc23)cc1: 98 % of control
CC1CN(/N=C/c2ccc([N+](=O)[O-])o2)C(=O)O1 (stereo not given): 108 % of control

Record request: T/C value, item CN1CCCSC1=S
111 % of control
